B1: TPR t1 (parent)
chain: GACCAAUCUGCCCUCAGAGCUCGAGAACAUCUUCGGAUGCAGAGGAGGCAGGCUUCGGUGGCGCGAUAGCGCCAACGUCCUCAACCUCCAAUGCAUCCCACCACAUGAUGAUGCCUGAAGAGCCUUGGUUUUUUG

- Variants of: B1
- experiment-description: polymerase ribozyme fitness, log enrichment relative to wild type (log ratio); higher = more active; in vitro selection for triplet polymerase activity
If the reported polymerase ribozyme fitness (log ratio) equals or exceeds -3, assign criterion met. If not, assign criterion not met.

[
  {
    "variant-designation": "C73A U129C",
    "label": "criterion met"
  },
  {
    "variant-designation": "A66U C115A",
    "label": "criterion met"
  },
  {
    "variant-designation": "C28A G110A",
    "label": "criterion met"
  },
  {
    "variant-designation": "C49U G52U G61A G120A",
    "label": "criterion met"
  },
  {
    "variant-designation": "A37U C114A",
    "label": "criterion met"
  }
]

Query: Given the entry C49G U92C , answer whether its polymerase ribozyme fitness (log ratio) meets or surpasses -3.
Result: criterion met

Query: Given the entry C31A C40G A46G G63A A111U , answer whether its polymerase ribozyme fitness (log ratio) meets or surpasses -3.
Result: criterion not met
